System: K3.4
Assay: 5FC and 5FU dose-response in BDNF-expressing CRL 5803 line and CD transfectants
Type: cell-based
Settings: Homo sapiens, read-out: IC50 for 5-FU
readout_label: IC50
The reply should consist of the numeric value with the unit placed after it.

Which IC50 value is on record for `O=c1[nH]cc(F)c(=O)[nH]1` ?
8.5 µM

====

Test system: BON cell line
Experiment: 5-FU cytotoxicity screen
Assay type: cell-based
Settings: Homo sapiens, neutral red endpoint after 5-7 days, read-out: concentration required to kill 50% of the cells
pIC50: −log10 of the molar value.
readout_label: pIC50

Param readout= pIC50; system= BON cell line; entry= `O=c1[nH]cc(F)c(=O)[nH]1` ; returns value.
≤ 3.30

====

Test system: human kidney cells 293 cells
Assay: 5FC sensitivity of cells expressing WT-CD transgene
Type: cell-based
Settings: HEK293, 293 cells expressing WT-CD transgene
readout_label: pIC50
Schema: pIC50 number; meaning minus log10 of the concentration expressed in molar units.

What value of pIC50 has been recorded for this entry: `Nc1nc(=O)[nH]cc1F`
4.26

====

Tested on: HT1080 cells (CD clone)
Assay: 5FC sensitivity of cells expressing WT CD gene
Format: cell-based, human
Details: Homo sapiens, HT-1080; HT1080 clone with high expression of immunoreactive CD; dominantly growth arrest
readout_label: IC50 (µM)
# number only, unit µM dropped from output

What IC50 appears in the records for this molecule with HT1080 cells (CD clone)? `Nc1nc(=O)[nH]cc1F`
110
